- ASSAY TARGET: T1, Dimeric Mouse Ang-2FD conjugated to human IgG1 (mouse (Mus musculus); human)
- T1 construct: also called Mouse Ang-2FD-hFc
- T1 sequence (chain, as listed by the source limits assumed): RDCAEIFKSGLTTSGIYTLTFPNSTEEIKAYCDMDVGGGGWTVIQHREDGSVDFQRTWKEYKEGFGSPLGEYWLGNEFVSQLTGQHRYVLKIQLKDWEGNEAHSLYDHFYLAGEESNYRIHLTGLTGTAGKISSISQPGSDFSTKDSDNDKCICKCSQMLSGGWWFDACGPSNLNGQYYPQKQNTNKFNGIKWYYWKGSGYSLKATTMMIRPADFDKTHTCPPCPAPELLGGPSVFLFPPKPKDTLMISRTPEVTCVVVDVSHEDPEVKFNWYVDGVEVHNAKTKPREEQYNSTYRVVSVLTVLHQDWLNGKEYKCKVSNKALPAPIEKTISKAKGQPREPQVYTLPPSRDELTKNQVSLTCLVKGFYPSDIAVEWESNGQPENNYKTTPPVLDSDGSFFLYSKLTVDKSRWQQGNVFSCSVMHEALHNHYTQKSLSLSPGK
- ASSAY METHOD TEXT: SPR, captured Ab, RT
- Source text: Antibody was captured on a goat anti-mouse IgG polyclonal antibody surface, a goat anti-human κ polyclonal antibody (Southern Biotech, Birmingham, Ala.) surface or a goat anti-human IgG polyclonal antibody (Jackson Immuno Research Lab, West Grove, Pa.) surface created through direct amine coupling to a BIACORE™ CM5 sensor chip to form a captured antibody surface. […] Antigen-antibody binding and dissociation were monitored in real time at room temperature. […]
READOUT: T1/2 (min)
Answer in min, number only, no unit symbol.

Solved entries (count: 2):
[
  {
    "BINDER": "H1M728N (antibody, V domains shown) VH: EVQLVESGGDLVQPGGSLRLSCTASGFTFSKYWMTWVRQAPGRGLEWVANIKEDGNEKYFLDSVKGRFTISRDNAKDLLFLQMNSLRGEDTAVYYCVRDRGIEVAGPFDYWGQGTLVTVSS VL: DIQMTQSPSTLSASVGDRVTVTCRASQTIINWLAWYQQKPGKAPKLLISKASSLESGVPSRFSGSGSGTEFTLTISSLQPDDFATYYCQQYNRYWTFGQGTMVEIK",
    "UNIT OF MEASUREMENT": "min",
    "T1/2": 9.9
  },
  {
    "BINDER": "H1H732N (antibody, V domains shown) VH: EVQLVESGGGLVRPGGSLRLSCAASGFTFTNAWMSWVRQAPGKGLEWIGQIKSKTDGGTIDYAAPVKGRFTVSRDDSENTLFLQMNSLKTEDTAVYYCAGNWNYVDFDYWGQGTLVTVSS VL: DIQMTQSPSSLSASVGDRVTITCRASQDIRNDLGWYQQKPGKAPKRLIYAASSLQGGVPSRFSGSGSGTEFTLTISSLQPEDFATYYCLQHNSYPFTFGPGTKVDIK",
    "UNIT OF MEASUREMENT": "min",
    "T1/2": 51
  }
]

Next item in the queue.
Given H1H749N (antibody, V domains shown) VH: QVQLVESGGGVVQPGRSLRLSCAASGFTFSSYGMHWVRQAPGKGLEWVAVIWYDEFNKYYADSVKGRFTISRDNSKNTLYLQMNSLRAEDTAVYYCARERESGYSYGFDYWGQGTLVTVSS VL: EIVMTQSPATLSVSPGERATLSCRAGQSVSSNLAWYQQKPGQAPRLLIYGASTRATGIPARFSGSGSGTEFTLTISSLQSEDFAVYYCQQYNNWWTFGQGTKVEIK , state its recorded T1/2.
96
